- Substrate: PET
- assay explanation: Proxy for plastic degradation [kcat] (s⁻¹)
- condition set: pH 9
Please respond with reported Proxy for plastic degradation for every item in the list.
Could you keep your reply to the number by itself?

Inquiry: For the protein shown here, unnamed (protein) MDGVLWRVRTAALMAALLALAAWALWASPSVEAQSNPYQRGPNPTRSALTADGPFSVATYTVSRLSVSGFGGVIYYPTGTSLTFGGIAMSPGYTADASSLAWLGRRLASHGFVVLVINTNSRFDYPDSRASQLSAALNYLRTSSPSAVRARLDANRLAVAGHSMGGGGTLRIAEQNPSLKAAVPLTPWHTDKTFNTSVPVLIVGCEADTVAPVSQHAIPFYQNLPSTTPKVYVELDNASHSCPNSNNAAISVYTISWMKLWVDNDTRYRQFLCNVNDPALSDFRTNNRHCQCQ , give the reported Proxy for plastic degradation.
Reply text: 0.03

Inquiry: Follow-up item: unnamed (protein) MNFPRASRLMQAAVLGGLMAVSAAATAQTNPYARGPNPTAASLEASAGPFTVRSFTVSRPSGYGAGTVYYPTNAGGTVGAIAIVPGYTARQSSIKWWGPRLASHGFVVITIDTNSTLDQPSSRSSQQMAALRQVASLNGTSSSPIYGKVDTARMGVMGWSMGGGGSLISAANNPSLKAAAPQAPWDSSTNFSSVTVPTLIFAAENDSIAPVNSSALPIYDSMSRNAKQFLEINGGSHSAANSGNSNQALIGKKGVAWMKRFMDNDTRYSTFACENPNSTRVSDFRTANCS
Reply text: 0
